Kindly state inhibition at 0.5 µM for each of the entries shown.
systemTested: human Cereblon WT GST-tagged protein (Homo sapiens, UniProt Q96SW2)
Construct: purchased CISBIO 64BDCRBNPEH
Sequence (Q96SW2 whole entry): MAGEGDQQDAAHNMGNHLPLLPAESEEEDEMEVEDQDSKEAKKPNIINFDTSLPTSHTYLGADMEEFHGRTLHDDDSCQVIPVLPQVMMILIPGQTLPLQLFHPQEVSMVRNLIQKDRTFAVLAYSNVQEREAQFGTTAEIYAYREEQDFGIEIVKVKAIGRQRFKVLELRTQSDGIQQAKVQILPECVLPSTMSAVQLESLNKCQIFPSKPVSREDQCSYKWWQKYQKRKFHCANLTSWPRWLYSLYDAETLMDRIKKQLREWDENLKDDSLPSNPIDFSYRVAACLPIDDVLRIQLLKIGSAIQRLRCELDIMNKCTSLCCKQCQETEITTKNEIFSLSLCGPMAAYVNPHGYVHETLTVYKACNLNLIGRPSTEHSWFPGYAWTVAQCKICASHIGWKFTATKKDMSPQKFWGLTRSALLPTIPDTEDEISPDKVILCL
assayName: CRBN-binding affinity, HTRF (CEREBLON BINDING kit)
experimentalContext: read-out: Inhibition Rate at 0.5 µM (%)

For orientation, consider the following solved cases.
Cc1nc(C2=CCN(Cc3ccc4c(c3)CN(C3CCC(=O)NC3=O)C4=S)CC2)c2c3c(sc2n1)CCC3 (centres unmarked) [GT-09326] = 53 to 60%
Cc1cc(C2=CCN(Cc3ccc4c(c3)CN(C3CCC(=O)NC3=O)C4=S)CC2)cs1 (centres unmarked) [GT-08327] = 53 to 60%
O=C1CCC(N2Cc3cc(CN4CCN(c5nccc(I)c5F)CC4)ccc3C2=S)C(=O)N1 (centres unmarked) [GT-09227] = 60 to 80%
O=C1CCC(N2Cc3c(CN4CCN(Cc5ccc(-c6ccc(Cl)cc6)cc5)CC4)cccc3C2=S)C(=O)N1 (centres unmarked) [GT-08960] = 53 to 60%

# batch: return inhibition at 0.5 µM for each of the 4 molecules below
1. O=C1CCC(N2Cc3c(CN4CCN(c5ccccc5)CC4)cccc3C2=S)C(=O)N1 (centres unmarked) [GT-08259]
2. O=C1CCC(N2Cc3cc(CN4CCC(c5ccsc5)CC4)ccc3C2=S)C(=O)N1 (centres unmarked) [GT-08324]
3. O=C1CCC(N2Cc3c(CN4CCC(c5c[nH]c6ncccc56)CC4)cccc3C2=S)C(=O)N1 (centres unmarked) [GT-08848]
4. O=C1CCC(N2Cc3c(CN4CCN(c5ccncc5)CC4)cccc3C2=S)C(=O)N1 (centres unmarked) [GT-08726]

Result ::
1: 40 to 53%; 2: 60 to 80%; 3: 30 to 40%; 4: 60 to 80%
